Answer each item with its documented composite z-score.
# Test system: glycogen synthase kinase-3 (GSK3A per assay name; protocol says GSK3B)
# experimental-details: GSK3 binders on small-molecule microarrays, primary screen, biochemical, small-molecule microarray, 635 nm fluorescence, GSK3A (AID 1103); further: the record names both GSK3A and GSK3B
# settings: small-molecule microarray binding, fluorescence 635 nm; higher = more signal

State, for glycogen synthase kinase-3 (GSK3A per assay name; protocol says GSK3B), measured composite z-score of the molecule listed here: `Cc1ccc(F)cc1S(=O)(=O)N[C@@H]1CCN(Cc2ccc(-c3ccccc3)cc2)C1`
0.205

State, for glycogen synthase kinase-3 (GSK3A per assay name; protocol says GSK3B), measured composite z-score of the molecule listed here: `O=C1O[C@@H](c2ccccc2)[C@@H](c2ccccc2)N2[C@@H](c3ccc(O)cc3)[C@]3(C(=O)Nc4ccc(C#CC5(O)CCCCCC5)cc43)[C@@H](C(=O)N3CCCCCCC3)[C@H]12`
1.38

State, for glycogen synthase kinase-3 (GSK3A per assay name; protocol says GSK3B), measured composite z-score of the molecule listed here: `N[C@@H](Cc1ccccc1)Cn1cc(-c2ccccc2)nn1`
-0.595

State, for glycogen synthase kinase-3 (GSK3A per assay name; protocol says GSK3B), measured composite z-score of the molecule listed here: `Cc1ccc(S[C@]2(C(=O)O)CC(=O)N(C3Cc4ccccc4C3)[C@@H]2c2ccc(CO)cc2I)cc1`
-0.695
